Could you please report measured I ABC for the items listed next?
# Species on record: Felis catus
# PROTOCOL TEXT: The mean area between curves for Intraocular Pressure (IOP) measured in treated and control eyes. The effect was tested in cats at a dose of 1.0 (ug/eye)
# Type: functional
Give bare numbers.

Okay, here is my list. What is I ABC for each of these?
1. Cc1cccc(CC[C@@H](O)/C=C/[C@@H]2[C@@H](C/C=C\CCCC(=O)OC(C)C)[C@@H](O)C[C@H]2O)c1
2. CC(C)OC(=O)CCC/C=C\C[C@@H]1[C@@H](/C=C/[C@@H](O)CCc2cccc(Br)c2)[C@H](O)C[C@@H]1O
3. CC(=O)c1cccc(CC[C@@H](O)/C=C/[C@@H]2[C@@H](C/C=C\CCCC(=O)OC(C)C)[C@@H](O)C[C@H]2O)c1
4. Cc1cccc(CC[C@H](O)/C=C/[C@@H]2[C@@H](C/C=C\CCCC(=O)OC(C)C)[C@@H](O)C[C@H]2O)c1
5. CC(C)OC(=O)CCC/C=C\C[C@@H]1[C@@H](/C=C/[C@H](O)CCc2cccc(-c3cccs3)c2)[C@H](O)C[C@@H]1O

### Response
1. -1.8
2. -12.9
3. -43.3
4. -17
5. 12.8

Okay, here is my list. What is I ABC for each of these?
1. CC(=O)c1cccc(CC[C@H](O)/C=C/[C@@H]2[C@@H](C/C=C\CCCC(=O)OC(C)C)[C@@H](O)C[C@H]2O)c1
2. CC(C)OC(=O)CCC/C=C\C[C@@H]1[C@@H](/C=C/[C@H](O)CCc2ccccc2)[C@H](O)C[C@@H]1O
3. CC(C)OC(=O)CCC/C=C\C[C@@H]1[C@@H](/C=C/[C@@H](O)CCc2ccc(Br)cc2)[C@H](O)C[C@@H]1O
4. CC(C)OC(=O)CCC/C=C\C[C@@H]1[C@@H](/C=C/[C@H](O)CCc2cccc(-c3ccsc3)c2)[C@H](O)C[C@@H]1O
5. CC(C)OC(=O)CCC/C=C\C[C@@H]1[C@@H](/C=C/[C@@H](O)CCc2ccc(-c3ccccc3)cc2)[C@H](O)C[C@@H]1O

### Response
1. 7.1
2. 0.3
3. 3.4
4. 16
5. -10

The reported numbers originate from ChEMBL document CHEMBL1128437.
